// data source = PubChem BioAssay (NCI)

# Tested on: M14 melanoma
# ASSAY METHOD TEXT: NCI-60 one-dose screen, 48 h (100 = growth as untreated, 0 = no growth, -100 = all killed)
# ASSAY CONDITIONS: 10 µM unless noted
This is part of a sample that, as a whole, favours compounds with a hit. Of some 83,000 tested, about 20% had one in any assay.
RECORDED METRIC: growth (%)
# number only, unit % dropped from output

Below, 8 compounds whose answers are already recorded.
                                   compound  assayed_target  recorded_metric  value_unit  observed_measurement
0  CC(=O)c1ccc(C(=O)NCC2CCC3(CC2)OOC2(CCCCC2)OO3)cc1    M14 melanoma           growth           %                  90.2
1  COc1ccc2c(c1)c(-c1nc(-c3c[nH]c4ncccc34)cs1)cn2CCN1CCOCC1    M14 melanoma           growth           %                  49.4
2                   CN(C)C(=O)Oc1ccc(Br)cc1    M14 melanoma           growth           %                   104
3  Fc1c[c-]c(-c2ccccn2)c(F)c1.[CH3-].[Pt+2].c1ccc([PH+](c2ccccc2)c2ccccn2)cc1    M14 melanoma           growth           %                 -30.4
4  O=[N+]([O-])CC(c1ccccc1Cl)c1c(-c2ccccc2)[nH]c2ccccc12 (centres undefined)    M14 melanoma           growth           %                  21.3
5  CCOC(=O)N[C@H]1CCc2c(Br)c(OC)c(OC)c(OC)c2-c2ccc(SC)c(=O)cc21    M14 melanoma           growth           %                 0.572
6  ClC1=C(Cl)C(Cl)(C2(Cl)C(Cl)=C(Cl)C(Cl)=C2Cl)C(Cl)=C1Cl    M14 melanoma           growth           %                 -57.6
7  c1ccc(COc2ccc3[nH]cc(CCN(Cc4ccccc4)Cc4ccccc4)c3c2)cc1    M14 melanoma           growth           %                  98.6

Okay, now this compound:
Given the entry COc1ccc2c(c1)c(-c1nc(-c3cn(C)c4ncccc34)cs1)cn2CCCCN1CCCCC1 , report its measured growth. -79.1
